The origin of these recorded values is patent US20090176811A1.

Documented inhibition at 1 µM across a set of compounds
# assaySystem: 5-HT transporter (Rattus norvegicus)
# Construct: from tissue; host or cells: rat medulla and pons synaptosomes (P2 fraction)
# Sequence (P31652 whole entry): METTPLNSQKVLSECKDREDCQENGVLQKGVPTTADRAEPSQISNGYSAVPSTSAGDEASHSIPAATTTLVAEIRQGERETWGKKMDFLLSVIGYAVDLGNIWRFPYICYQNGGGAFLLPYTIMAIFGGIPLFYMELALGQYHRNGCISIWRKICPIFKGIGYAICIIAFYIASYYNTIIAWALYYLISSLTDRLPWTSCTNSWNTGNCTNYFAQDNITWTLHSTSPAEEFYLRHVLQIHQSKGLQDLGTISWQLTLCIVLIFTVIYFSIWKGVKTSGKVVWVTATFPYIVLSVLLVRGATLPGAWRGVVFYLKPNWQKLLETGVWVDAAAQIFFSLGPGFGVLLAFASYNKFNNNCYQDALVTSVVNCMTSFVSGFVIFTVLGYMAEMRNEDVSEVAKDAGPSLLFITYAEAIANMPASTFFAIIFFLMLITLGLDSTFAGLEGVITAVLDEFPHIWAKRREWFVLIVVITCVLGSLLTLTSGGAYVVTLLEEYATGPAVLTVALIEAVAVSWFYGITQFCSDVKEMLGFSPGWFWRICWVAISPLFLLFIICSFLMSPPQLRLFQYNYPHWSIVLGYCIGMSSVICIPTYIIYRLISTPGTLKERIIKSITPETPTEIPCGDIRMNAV
# procedureDetails: 5-HT uptake inhibition in rat brain synaptosomes (medulla and pons)
# Assay type: biochemical
propertyName: inhibition at 1 µM (%)

• O=C(Nc1ncc2c(n1)CCN(C(=O)C1CCc3ccccc3C1)C2)c1cccc(F)c1 (stereo not shown) = 54
• O=C(Nc1ncc2c(n1)CCN(C(=O)Cc1ccc(Cl)cc1)C2)c1ccc(Cl)c(Cl)c1 = 55
• CC(C)(C)c1ccc(C(=O)Nc2ncc3c(n2)CCN(C(=O)c2csc4ccccc24)C3)cc1 = 48
• O=C(NC1CCc2nc(NC(=O)c3cccs3)ncc2C1)c1cc(F)cc(F)c1 (stereo not shown) = 30
• CCN(CC)C(=O)CCC(=O)N1CCc2nc(NC(=O)c3cc(Cl)cc(Cl)c3)ncc2C1 = 32
• O=C(Nc1ncc2c(n1)CCN(S(=O)(=O)c1cccc(Br)c1)C2)c1cccc(Cl)c1 = 43
• O=C(Nc1ncc2c(n1)CCN(C(=O)CCCCc1ccccc1)C2)c1ccccc1 = 36
• CCc1ccc(C(=O)Nc2ncc3c(n2)CCN(S(=O)(=O)c2ccsc2)C3)cc1 = 52
• COc1ccccc1C(=O)Nc1ncc2c(n1)CCN(S(=O)(=O)c1c(C)cc(OC)c(C)c1C)C2 = 55
• Cc1cc(C)c(C)c(S(=O)(=O)N2CCc3nc(NC(=O)c4cccs4)ncc3C2)c1C = 41
• Cc1cccc(C(=O)Nc2ncc3c(n2)CCN(S(=O)(=O)c2cccc(C)c2)C3)c1 = 31
• O=C(Nc1ncc2c(n1)CCN(C(=O)c1ccc(Cl)c(Cl)c1)C2)c1ccccc1F = 45
• Cc1ccccc1C(=O)N1CCc2nc(NC(=O)c3cccc(Cl)c3)ncc2C1 = 30
• O=C(Nc1ncc2c(n1)CCN(S(=O)(=O)c1ccc(Cl)s1)C2)c1cccc2ccccc12 = 32
• O=C(Nc1ncc2c(n1)CCN(S(=O)(=O)c1ccc(OC(F)(F)F)cc1)C2)c1ccc(Cl)c(Cl)c1 = 58
• O=C(Nc1ncc2c(n1)CCN(C(=O)c1cc(F)cc3c1OCOC3)C2)c1ccccc1C(F)(F)F = 65

====

# assaySystem: mGluR5 receptor (Sus scrofa)
# Construct: 450 μg of protein from brain homogenate is incubated; from tissue; host or cells: pig brain hemispheres without medulla, cerebellum and pons
# Sequence (I3LUI7 19-1212): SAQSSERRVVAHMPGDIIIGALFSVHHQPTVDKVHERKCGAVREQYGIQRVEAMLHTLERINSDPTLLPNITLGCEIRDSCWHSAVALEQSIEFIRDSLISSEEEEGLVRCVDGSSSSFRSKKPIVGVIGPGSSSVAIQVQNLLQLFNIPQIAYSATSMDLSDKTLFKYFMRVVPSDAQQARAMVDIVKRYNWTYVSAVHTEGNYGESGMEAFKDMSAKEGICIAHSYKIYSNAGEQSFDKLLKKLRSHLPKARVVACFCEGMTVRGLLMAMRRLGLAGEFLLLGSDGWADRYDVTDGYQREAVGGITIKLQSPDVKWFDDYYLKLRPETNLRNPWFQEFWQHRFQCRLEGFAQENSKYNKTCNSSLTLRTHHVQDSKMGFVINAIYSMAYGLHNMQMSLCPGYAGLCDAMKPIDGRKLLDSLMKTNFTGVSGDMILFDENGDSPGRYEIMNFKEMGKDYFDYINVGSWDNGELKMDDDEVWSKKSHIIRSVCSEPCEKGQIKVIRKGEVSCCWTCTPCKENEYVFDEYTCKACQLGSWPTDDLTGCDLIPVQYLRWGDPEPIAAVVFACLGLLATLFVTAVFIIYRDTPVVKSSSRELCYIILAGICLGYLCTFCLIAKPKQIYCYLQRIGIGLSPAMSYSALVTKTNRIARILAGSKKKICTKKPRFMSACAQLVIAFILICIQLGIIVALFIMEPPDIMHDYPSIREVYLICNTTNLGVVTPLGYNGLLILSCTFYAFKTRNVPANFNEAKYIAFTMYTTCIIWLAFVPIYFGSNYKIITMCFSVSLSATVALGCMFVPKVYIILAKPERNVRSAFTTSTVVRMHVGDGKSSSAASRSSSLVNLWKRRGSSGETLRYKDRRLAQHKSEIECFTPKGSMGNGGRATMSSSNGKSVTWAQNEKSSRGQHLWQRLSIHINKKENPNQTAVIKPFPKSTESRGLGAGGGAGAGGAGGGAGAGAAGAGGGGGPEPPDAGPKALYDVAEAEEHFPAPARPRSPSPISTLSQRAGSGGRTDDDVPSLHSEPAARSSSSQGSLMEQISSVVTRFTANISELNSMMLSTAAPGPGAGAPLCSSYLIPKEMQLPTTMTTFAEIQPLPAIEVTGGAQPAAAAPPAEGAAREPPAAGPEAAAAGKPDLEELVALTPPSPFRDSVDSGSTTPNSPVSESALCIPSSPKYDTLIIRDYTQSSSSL
# procedureDetails: Affinity for the mGluR5 receptor ([3H]-MPEP binding, pig brain homogenate)
# studyConditions: 10 μM compound, 15 nM [3H]-MPEP
Documented inhibition at 10 µM across a set of compounds
propertyName: inhibition at 10 µM (%)

- O=C(CCCCCNC(=O)OCc1ccccc1)NC1CCc2nc(NC(=O)c3ccc(F)cc3)ncc2C1 (stereo not drawn) [Example 181]: 36.4
- COc1ccccc1C(=O)Nc1ncc2c(n1)CCN(C(=O)c1cc(-c3ccc(Cl)cc3)oc1C)C2 [Example 78]: 41.1
- O=C(Nc1ncc2c(n1)CCN(C(=O)c1ccc(Cl)c(Cl)c1)C2)c1cccnc1 [Example 156]: 46
- Cc1ccc(C(=O)N2CCc3nc(NC(=O)c4cccc5ccccc45)ncc3C2)cc1F [Example 154]: 30.7
- CCc1ccc(C(=O)Nc2ncc3c(n2)CCN(S(=O)(=O)c2ccc(OC)cc2)C3)cc1 [Example 172]: 70.1
- CCCC(=O)Nc1ncc2c(n1)CCC(NS(=O)(=O)c1cccc(C)c1)C2 (stereo not drawn) [Example 146]: 39.6
- O=C(Nc1ncc2c(n1)CCN(C(=O)CCC1CCCC1)C2)c1ccncc1 [Example 132]: 58.1
- O=C(Nc1ncc2c(n1)CCC(NS(=O)(=O)c1cc(Cl)sc1Cl)C2)c1cccs1 (stereo not drawn) [Example 180]: 86.7
- CCOc1ccccc1C(=O)Nc1ncc2c(n1)CCN(C(=O)c1sccc1Cl)C2 [Example 145]: 84.4
- CCOc1ccccc1C(=O)Nc1ncc2c(n1)CCN(S(=O)(=O)c1ccccc1C(=O)OC)C2 [Example 82]: 36.3
- O=C(Nc1ncc2c(n1)CCN(C(=O)c1ccc(F)cc1F)C2)c1ccc(Cl)cc1 [Example 152]: 34
- Cc1cc(C(=O)NC2CCc3nc(NC(=O)c4cccs4)ncc3C2)ccc1Br (stereo not drawn) [Example 115]: 34.3
- O=C(Nc1ncc2c(n1)CCN(C(=O)c1ccc(Cl)c(Cl)c1)C2)c1ccccc1F [Example 113]: 31.3
- O=C(Nc1ncc2c(n1)CCN(S(=O)(=O)Cc1ccccc1)C2)c1ccc(F)cc1 [Example 178]: 45.3
- Cc1ccc(C(=O)Nc2ncc3c(n2)CCN(C(=O)COc2cccc(Cl)c2)C3)cc1 [Example 189]: 39.5
- CC(C)(C)c1ccc(C(=O)Nc2ncc3c(n2)CCN(C(=O)c2csc(-c4ccccc4)n2)C3)cc1 [Example 29]: 40.5
- Cc1ccc(C(=O)Nc2ncc3c(n2)CCN(S(=O)(=O)c2cc(F)ccc2C)C3)cc1 [Example 107]: 38.2
- CCCCC(C)CCC(=O)N1CCc2nc(NC(=O)c3cccc4ccccc34)ncc2C1 (stereo not drawn) [Example 193]: 51.8
